Tested on: proteasome in Molt-4 cells
procedure-details: Cellular assay for chymotrypsin-like activity of proteasome in Molt-4 cell line, EC50 determination
Format: cell-based, human
condition-details: MeOSuc-FLF-AFC substrate, 15 minutes preincubation at 37° C., read-out: MOLT4 (EC50)
Measured EC50 values are reported for all entries that follow.

Recorded EC50, per entry:
# sample-smiles, measured-on, test-value
measured = [
    ("COC(=O)CCCCCCC(=O)N[C@@H](CCCNC(=N)N[N+](=O)[O-])C(=O)N[C@@H](CC(C)C)B1O[C@@H]2C[C@@H]3C[C@@H](C3(C)C)[C@]2(C)O1", "proteasome in Molt-4 cells", "< 2000 nM"),
    ("CCS(=O)(=O)NCCCCCCCC(=O)N[C@@H](CCCNC(=N)N[N+](=O)[O-])C(=O)N[C@@H](CC(C)C)B1O[C@@H]2C[C@@H]3C[C@@H](C3(C)C)[C@]2(C)O1", "proteasome in Molt-4 cells", "< 200 nM"),
]

Consider the record given below.
Write down the reported EC50 of "CC(C)C[C@H](NC(=O)[C@H](CCCNC(=N)N[N+](=O)[O-])NC(=O)CCCCCCCCCCCNC(=O)OC(C)(C)C)B1O[C@@H]2C[C@@H]3C[C@@H](C3(C)C)[C@]2(C)O1" , test system: proteasome in Molt-4 cells.
< 200 nM
